// provenance: the supplement of paper PMC12764529

assay: folding stability dG unfold from trypsin proteolysis; higher = more stable
Mark criterion met for reported folding stability dG unfold of 3 kcal/mol or greater; mark criterion not met for anything smaller.

{"seq.text": "SAGGSAGGSAKKVVTVPEDATLEEIEELLKSGEKVTVVIHNKETGKTETLEFDSLEELKAASAGGSAGGSAG [r3_362_TrROS_Hall]", "class.label": "criterion not met"}
{"seq.text": "SAGGMKVIELTVDEIKELADKLKENKNLKATIYVNGKKVELEFDTVEDALKALKVKPGDTVLIEIEPSAGGS [r16_377_TrROS_Hall]", "class.label": "criterion not met"}
{"seq.text": "SAGGGSLSDIATVDTSSYTDPNNPASVTVTNVTIPDGSTVTVTYNPTTGTVTVTTATDGTTTTTTIPSSAGG [r13_960_JUSTAS]", "class.label": "criterion not met"}
{"seq.text": "SAGGLLVVLPPDLTPEELREKALELAELARKAGDFEVERIELVRDEETDRPYAVLVIRDPRTGKILVASAGG [r13_669_TrMRF]", "class.label": "criterion not met"}
{"seq.text": "SAGNFNIKEQKETDGRRVIEIPMPGSGHEITIVFERNPDGPRKININMNGPMADYLREALPGIDRVEIISAG [r5_933_TrROS]", "class.label": "criterion not met"}
{"seq.text": "SAGMTVTFTLDFPANGGPITITVYHGDKAEEITVPKNETVTITVDLDPNDGLTIRAHYPDGSYVEFPIGSAG [r5_187_TrMRF]", "class.label": "criterion met"}
